All values here come from patent US6756210B2.

For each of the molecules below, state its IC50.
Molecular target: recombinant mouse sEH (MsEH) (Mus musculus, UniProt P34914)
Sequence (P34914 whole entry): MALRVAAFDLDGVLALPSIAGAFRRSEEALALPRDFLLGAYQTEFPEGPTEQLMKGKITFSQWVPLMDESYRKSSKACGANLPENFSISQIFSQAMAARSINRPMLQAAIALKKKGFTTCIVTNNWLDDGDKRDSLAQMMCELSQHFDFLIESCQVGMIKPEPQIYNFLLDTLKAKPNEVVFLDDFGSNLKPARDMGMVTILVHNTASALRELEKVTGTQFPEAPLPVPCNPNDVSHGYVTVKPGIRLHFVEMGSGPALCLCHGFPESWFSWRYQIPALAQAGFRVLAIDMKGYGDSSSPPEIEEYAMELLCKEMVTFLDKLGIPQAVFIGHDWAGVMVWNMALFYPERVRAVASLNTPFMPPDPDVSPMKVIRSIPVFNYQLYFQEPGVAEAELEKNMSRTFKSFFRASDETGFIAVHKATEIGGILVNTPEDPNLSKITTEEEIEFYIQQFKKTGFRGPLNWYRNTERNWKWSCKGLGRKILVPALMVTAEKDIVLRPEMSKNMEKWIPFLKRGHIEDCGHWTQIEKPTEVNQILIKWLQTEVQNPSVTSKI
Assay: Inhibition of recombinant mouse sEH (MsEH)
Format: biochemical
Settings: Table 1; MsEH 0.13 μM; read-out: Mouse sEH IC50
Give bare numbers, in nM.

For orientation, consider the following solved cases.
molecule: O=C(NCCCc1ccccc1)NC12CC3CC(CC(C3)C1)C2
IC50, nM: 50
//
molecule: O=C(NC1CCCCCC1)NC1CCCCC1
IC50, nM: 50
//
molecule: O=C(NC1CCCCC1)OC1C2CC3CC(C2)CC1C3 (stereo not drawn)
IC50, nM: 60
//
molecule: O=C(NCC1CCCCC1)Nc1ccccc1
IC50, nM: 60

Would you mind giving IC50 for every molecule in the list below?
1. CC(C)(C)OC(=O)NCCNC(=O)NC1CCCCC1
2. CCCCCCCCCCCCNC(=O)NC1CCCCC1
3. CCCCCCCCCCCCCNC(=O)NC1CCCCC1
4. CCCCCCCCNC(=O)NCCC
5. CCCCCCNC(=O)Nc1ccccc1
6. O=C(NC1CCCCCCCCCCC1)NC12CC3CC(CC(C3)C1)C2
7. COc1ccc(CCNC(=O)NC2CCCCC2)cc1OC

output:
50
50
50
730
850
50
50

input: Quick one: IC50 for O=C(Nc1nnn[nH]1)NC1CCCCC1 ?
output: 50
